methodSummary: Ocular tissue and plasma pharmacokinetics, 15 mg/kg single and BID oral, Dutch Belted rabbits (Example 3/5)
Assay type: in vivo
conditionsUsed: Dutch Belted, rabbit, iris-ciliary body, po, 15 mg/kg, DB rabbit, 15 mg/kg single oral dose, Day 1, 1 h; read-out: Mean Iris-Ciliary Body concentration

molecule	concentration at 1 h
CC(=O)c1nn(CC(=O)N2C[C@H](F)C[C@H]2C(=O)Nc2cccc(Br)n2)c2ccc(-c3cnc(C)nc3)cc12 [Compound 1]	1010 ng/g

###

methodSummary: Ocular tissue distribution and pharmacokinetics, 7.5 and 15 mg/kg oral, pigmented Dutch Belted rabbits (Example 7)
Type: in vivo
conditionsUsed: Dutch Belted, rabbit, iris-ciliary body (ICB); ICB (OU), male DB rabbits, Group 3, Day 15, 15 mg/kg/dose BID oral (30 mg/kg/day)
Experimental: For Group 1, two animals/time point were sacrificed via an overdose of sodium pentobarbital at approximately 1, 6, 12, 24, 96, 168, and 240 hours postdose. Blood (approximately 2 mL) was collected from all animals at sacrifice into tubes containing K2EDTA via exsanguination (cardiac puncture). […]

testSmiles	measureUnit	Tmax
CC(=O)c1nn(CC(=O)N2C[C@H](F)C[C@H]2C(=O)Nc2cccc(Br)n2)c2ccc(-c3cnc(C)nc3)cc12	h	1

###

methodSummary: Ocular tissue distribution and pharmacokinetics, 7.5 and 15 mg/kg oral, pigmented Dutch Belted rabbits (Example 7)
Type: in vivo
conditionsUsed: Dutch Belted, rabbit, plasma, oral, […], DB rabbits, Day 15, […] BID, 1 hr; read-out: Mean Plasma Concentration
Procedure: For Group 1, two animals/time point were sacrificed via an overdose of sodium pentobarbital at approximately 1, 6, 12, 24, 96, 168, and 240 hours postdose. Blood (approximately 2 mL) was collected from all animals at sacrifice into tubes containing K2EDTA via exsanguination (cardiac puncture). […]

molecule	concentration at 1 h
CC(=O)c1nn(CC(=O)N2C[C@H](F)C[C@H]2C(=O)Nc2cccc(Br)n2)c2ccc(-c3cnc(C)nc3)cc12 [Compound 1]	0.44 µg/mL

###

methodSummary: Ocular tissue and plasma pharmacokinetics, 15 mg/kg single and BID oral, Dutch Belted rabbits (Example 3/5)
Type: in vivo
conditionsUsed: Dutch Belted, rabbit, iris-ciliary body, po, 15 mg/kg, DB rabbit, 15 mg/kg single oral dose, Day 1, 24 h; read-out: Mean Iris-Ciliary Body concentration
reportedProperty: concentration at 24 h (ng/g)

testSmiles	measureUnit	reportedValue
CC(=O)c1nn(CC(=O)N2C[C@H](F)C[C@H]2C(=O)Nc2cccc(Br)n2)c2ccc(-c3cnc(C)nc3)cc12	ng/g	300

###

methodSummary: Ocular tissue and plasma pharmacokinetics, 50 mg/kg BID oral, Dutch Belted rabbits (Example 4/5)
Type: in vivo
conditionsUsed: male, Dutch Belted, po; Plasma, DB rabbit, 50 mg/kg BID, Day 15
reportedProperty: half-life (h)

compound	reportedValue
CC(=O)c1nn(CC(=O)N2C[C@H](F)C[C@H]2C(=O)Nc2cccc(Br)n2)c2ccc(-c3cnc(C)nc3)cc12 [Compound 1]	5.98

###

methodSummary: Ocular tissue distribution and pharmacokinetics, 7.5 and 15 mg/kg oral, pigmented Dutch Belted rabbits (Example 7)
Format: in vivo
conditionsUsed: Dutch Belted, rabbit, retina, oral, 15 mg/kg BID, DB rabbits, Day 15, 15 mg/kg BID, 6 hr; read-out: Mean Retina Concentration

testSmiles	concentration at 6 h
CC(=O)c1nn(CC(=O)N2C[C@H](F)C[C@H]2C(=O)Nc2cccc(Br)n2)c2ccc(-c3cnc(C)nc3)cc12	115 ng/g

###

Tested on: AP activity
methodSummary: Wieslab assay (AP activity in vitro)
Format: biochemical
pIC50: −log10 of the molar value.
reportedProperty: pIC50

testSmiles	assaySystem	reportedValue
CC(=O)c1nn(CC(=O)N2C[C@H](F)C[C@H]2C(=O)Nc2cccc(Br)n2)c2ccc(-c3cnc(C)nc3)cc12	AP activity	7.59

###

methodSummary: Ocular tissue and plasma pharmacokinetics, 50 mg/kg BID oral, Dutch Belted rabbits (Example 4/5)
Type: in vivo
conditionsUsed: male, Dutch Belted, rabbit, retina, po, 50 mg/kg, DB rabbit, 50 mg/kg BID oral, Day 15, 240 h; read-out: Mean retina concentration

testSmiles	concentration at 240 h, ng/g
CC(=O)c1nn(CC(=O)N2C[C@H](F)C[C@H]2C(=O)Nc2cccc(Br)n2)c2ccc(-c3cnc(C)nc3)cc12	39.3

###

methodSummary: Ocular tissue distribution and pharmacokinetics, 7.5 and 15 mg/kg oral, pigmented Dutch Belted rabbits (Example 7)
Assay type: in vivo
conditionsUsed: Dutch Belted, rabbit, iris-ciliary body (ICB); ICB (OU), male DB rabbits, Group 1, Day 1, 7.5 mg/kg single oral dose
reportedProperty: Tmax (h)

testSmiles	reportedProperty	measureUnit	reportedValue
CC(=O)c1nn(CC(=O)N2C[C@H](F)C[C@H]2C(=O)Nc2cccc(Br)n2)c2ccc(-c3cnc(C)nc3)cc12	Tmax	h	1

###

methodSummary: Phase 1 single ascending dose plasma pharmacokinetics in healthy volunteers
Type: in vivo, human
conditionsUsed: human, po, 1200 mg, Group 3, 1200 mg single oral dose, Mean (N 6), read-out: AUC(0-24)
Experimental: This study was conducted in healthy human volunteers in a randomized, double-blind design. Compound 1 or placebo was administered as a single oral dose to twenty-eight healthy volunteers in three separate dose groups. […] Pharmacokinetic data from each volunteer is summarized in Table 29, and plasma concentration data is shown graphically in FIG. 19.

compound	measureUnit	AUC(0-t)
CC(=O)c1nn(CC(=O)N2C[C@H](F)C[C@H]2C(=O)Nc2cccc(Br)n2)c2ccc(-c3cnc(C)nc3)cc12 [Compound 1]	ng·h/mL	11400

###

methodSummary: Ocular tissue and plasma pharmacokinetics, 50 mg/kg BID oral, Dutch Belted rabbits (Example 4/5)
Format: in vivo
conditionsUsed: male, Dutch Belted, po; Optic Nerve, DB rabbit, 50 mg/kg BID, Day 15

testSmiles	Tmax / h
CC(=O)c1nn(CC(=O)N2C[C@H](F)C[C@H]2C(=O)Nc2cccc(Br)n2)c2ccc(-c3cnc(C)nc3)cc12	1

###

methodSummary: Ocular tissue and plasma pharmacokinetics, 15 mg/kg oral, New Zealand White rabbits (Example 3/5)
Type: in vivo
conditionsUsed: New Zealand White, rabbit, choroid-RPE, oral; NZW rabbits, Day 1, 15 mg/kg single dose, 1 hr; read-out: Mean Choroid-RPE Concentration
reportedProperty: concentration at 1 h (ng/g)

compound	reportedValue
CC(=O)c1nn(CC(=O)N2C[C@H](F)C[C@H]2C(=O)Nc2cccc(Br)n2)c2ccc(-c3cnc(C)nc3)cc12 [Compound 1]	172

###

methodSummary: Ocular tissue distribution and pharmacokinetics, 7.5 and 15 mg/kg oral, pigmented Dutch Belted rabbits (Example 7)
Format: in vivo
conditionsUsed: Dutch Belted, rabbit; Retina (OU), male DB rabbits, Group 1, Day 1, 7.5 mg/kg single oral dose
reportedProperty: MRT last

testSmiles	reportedProperty	reportedValue
CC(=O)c1nn(CC(=O)N2C[C@H](F)C[C@H]2C(=O)Nc2cccc(Br)n2)c2ccc(-c3cnc(C)nc3)cc12	MRT last	2.7 h

###

methodSummary: Ocular tissue and plasma pharmacokinetics, 15 mg/kg single and BID oral, Dutch Belted rabbits (Example 3/5)
Format: in vivo
conditionsUsed: Dutch Belted, rabbit, aqueous humor, po, 15 mg/kg, DB rabbit, 15 mg/kg single oral dose, Day 1, 6 h; read-out: Mean Aqueous Humor concentration
reportedProperty: concentration at 6 h (ng/mL)

testSmiles	measureUnit	reportedValue
CC(=O)c1nn(CC(=O)N2C[C@H](F)C[C@H]2C(=O)Nc2cccc(Br)n2)c2ccc(-c3cnc(C)nc3)cc12	ng/mL	45.3

###

methodSummary: Ocular tissue and plasma pharmacokinetics, 15 mg/kg single and BID oral, Dutch Belted rabbits (Example 3/5)
Assay type: in vivo
conditionsUsed: Dutch Belted, rabbit, choroid-RPE, po, 15 mg/kg, DB rabbit, 15 mg/kg BID oral, Day 15, 168 h; read-out: Mean Choroid-RPE concentration
reportedProperty: concentration at 168 h (ng/g)

testSmiles	reportedProperty	reportedValue
CC(=O)c1nn(CC(=O)N2C[C@H](F)C[C@H]2C(=O)Nc2cccc(Br)n2)c2ccc(-c3cnc(C)nc3)cc12	concentration at 168 h	485

###

methodSummary: Ocular tissue distribution and pharmacokinetics, 15 mg/kg BID oral, nonpigmented New Zealand White rabbits (Example 7)
Assay type: in vivo
conditionsUsed: male, New Zealand White, rabbit, plasma, po, 15 mg/kg, plasma, male NZW rabbits, Group 4, Day 15, 15 mg/kg/dose BID oral (30 mg/kg/day); read-out: AUC0-240
Method: For Groups 2 through 4, blood (approximately 2 mL) was collected via a jugular vein using a syringe and needle and was transferred into tubes containing K2EDTA at approximately 12 hours after the a.m. dose on Day 15 from the two animals designated for sacrifice at approximately 240 hours after the a.m. dose on Day 15. […]
reportedProperty: AUC(0-t) (ng·h/mL)

molecule	measureUnit	reportedValue
CC(=O)c1nn(CC(=O)N2C[C@H](F)C[C@H]2C(=O)Nc2cccc(Br)n2)c2ccc(-c3cnc(C)nc3)cc12 [Compound 1]	ng·h/mL	3910
